system: H9c2 cardiomyocytes, 2-deoxyglucose stress, ATP luminescence, 2 h; assay: H9c2 cell survival under 2-deoxyglucose stress – uHTS hits, dose response (AID 588780)
Calls of active or inactive are those of the source.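 How the source made its calls: active means compounds whose fitted half-maximal concentration in the cell-protection dose series is at or below a set limit; inactive means the rest.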
Outcome codes: active, inactive

CCOC(=O)c1ccc(-c2ccc(C3Nc4ccccc4C(=O)N3O)o2)cc1 (configuration not stated)    active
Cc1cc(C)c(C)c(S(=O)(=O)N2CCN(C(=O)CCc3nc4ccccc4c(=O)[nH]3)CC2)c1C    inactive
CC1(C)CC2CC(C)(CN2C(=O)COC(=O)Cn2[nH]c(=O)c3ccccc3c2=O)C1 (configuration not stated)    inactive
CC(=O)Nc1cccc(NC(=O)CSc2ccc(-c3ccccn3)nn2)c1    inactive
CCOC(=O)c1nc(Nc2ccc(C(C)=O)cc2)c2ccccc2n1    active
CCOC(=O)C1=NN(C(=O)c2ccco2)C2(CC2)C1    inactive
CCOC(=O)c1cc2c(=O)n3cccc(C)c3nc2n(CCCOC)c1=NC(=O)c1cccnc1    inactive
O=C(COC(=O)Cc1n[nH]c(=O)c2ccccc12)Nc1c(Br)cc([N+](=O)[O-])cc1Br    inactive
Brc1ccc(-c2nn3c(-c4ccco4)nnc3s2)o1    active
Cc1cccc(-n2[nH]c(C)c(C=Nc3ccc4[nH]c(=O)[nH]c4c3)c2=O)c1    inactive
CCC(=O)Oc1cccc(C(=O)Nc2ccc(-c3nnc(-c4ccco4)o3)cc2)c1    inactive
COC(=O)c1ccc(Cn2c(C)c(C(=O)NCc3cccs3)sc2=O)o1    inactive
CC(NC(=O)Cn1nc(C(=O)O)c2ccccc2c1=O)c1ccccc1 (configuration not stated)    inactive
CCOC(=O)CSc1nnc(CSc2nc3sc4c(c3c(=O)[nH]2)CCC4)n1C    inactive
CCCn1c(SC(C(=O)Nc2cccc(OC)c2)c2ccccc2)nc2ccccc2c1=O (configuration not stated)    inactive
CCSc1nnc(N)s1    inactive
Cc1[nH]c2ccccc2c1C(=O)CSc1nc2ccccc2[nH]1    inactive
COc1cc(OC)c(-c2nn3c(-c4ccco4)nnc3s2)cc1OC    active
CCC(=O)N1CCN(c2ccccc2NC(=O)COc2cc(C)ccc2C(C)C)CC1    active
O=C(CCc1nc2ccccc2c(=O)[nH]1)NCC(=O)Nc1ccc(F)c(F)c1    inactive
O=C(Cn1[nH]c(=O)c2ccccc2c1=O)OCC(=O)N1CCCc2ccccc21    inactive
O=C(N/N=C\c1ccccn1)c1cccc(C(=O)N/N=C\c2ccccn2)n1    inactive
COc1ccccc1OCC(=O)N/N=C/c1cccc2cccnc12    inactive
Cc1ccc(CNC(=O)c2oc3ccc(S(=O)(=O)N4CCOCC4)cc3c2C)cc1    active
CCC(=O)N1CCN(c2ccccc2NC(=O)c2ccc(-c3cccc([N+](=O)[O-])c3)o2)CC1    inactive
O=C(COC(=O)Cn1[nH]c(=O)c2ccccc2c1=O)NNC(=O)c1ccccc1    inactive
CC(=O)n1cc(/C=N/NC(=O)c2sc(C)nc2C)c2ccccc21    inactive
O=C(CCc1nc2ccccc2c(=O)[nH]1)Nc1ccc(Cl)c(Cl)c1    active
COc1ccc(OC)c(/C=N/NC(=O)c2cc3c(OC)c(OC)ccc3[nH]2)c1    inactive
COc1cc(-c2cc(NC=O)c3ncc(-c4ccccc4)n3c2)cc(OC)c1OC    inactive
Cc1cc(C)n(-c2ccc3cccc(NS(C)(=O)=O)c3n2)n1    inactive
O=[N+]([O-])c1ccc(-c2nc(Nc3ccc(O)cc3)c3ccccc3n2)cc1    inactive
COc1ccc(/C=N/NC(=O)c2cccnc2)cc1CSc1nc2ccccc2s1    active
O=C(NCc1ccco1)c1cnn2c(C(F)(F)F)cc(-c3cccs3)nc12    inactive
COCCN1CCN(c2c3c(nc4cc(-c5cccc(F)c5)nn24)CCC3)CC1    inactive
COc1cccc(-c2cnc3c(NC=O)cc(-c4ccc(O)c(OC)c4)cn23)c1    inactive
CC(C)CCN(C(=O)CNC(=O)c1ccco1)C(C(=O)NC1CCCCC1)c1ccco1 (configuration not stated)    inactive
Cc1cc(C)cc(OCC(=O)Nc2cccc(-c3nnc(-c4ccco4)o3)c2)c1    inactive
COc1ccc(-c2cc3nc(-c4ccccc4)cc(N4CCN(C(=O)c5ccoc5)CC4)n3n2)cc1    active
COc1ccc(-c2cc(-c3nnc(COC(=O)C4CC4C)o3)c3ccccc3n2)cc1OC (configuration not stated)    inactive
NC(=O)c1cccc(Nc2nc(C(N)COCc3ccccc3)cs2)n1 (configuration not stated)    inactive
O=c1cc(COc2ncnc3c(Cl)cc(Cl)cc23)nc2sccn12    inactive
